IC50 by entry:
- Experimental system: Human immunodeficiency virus type 1 integrase (Human immunodeficiency virus 1, UniProt Q7ZJM1)
- Sequence (Q7ZJM1 whole entry): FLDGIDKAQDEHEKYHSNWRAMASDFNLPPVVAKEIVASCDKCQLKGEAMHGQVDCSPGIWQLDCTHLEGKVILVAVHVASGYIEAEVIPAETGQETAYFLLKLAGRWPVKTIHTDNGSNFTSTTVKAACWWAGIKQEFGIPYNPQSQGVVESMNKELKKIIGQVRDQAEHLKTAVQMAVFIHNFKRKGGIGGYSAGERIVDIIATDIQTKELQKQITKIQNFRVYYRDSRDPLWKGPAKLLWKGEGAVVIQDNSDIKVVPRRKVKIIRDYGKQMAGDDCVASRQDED
- Method: Inhibition of HIV1 integrase strand transfer activity

Molecule: Nc1c(C(=O)Nc2ccc(Cl)c(Cl)c2)sc2[nH]c(=O)c(C(=O)O)cc12
Unit of measure: µM
Value modifier: =
IC50: 5

Molecule: CCOc1cc(/C=C2\C(=O)N(c3nnn[nH]3)N=C2C)ccc1OC
Unit of measure: µM
Value modifier: =
IC50: 59

Molecule: O=C(O)C1CCCCC1C(=O)Nc1ccc(Oc2cccc3ccccc23)cc1 (stereo unspecified)
Unit of measure: µM
Value modifier: =
IC50: 34

Molecule: O=C(O)CSc1nc(-c2ccccc2)cc(C(F)(F)F)n1
Unit of measure: µM
Value modifier: >
IC50: 100

Molecule: Cc1ccc2nc(-c3ccc(NC(=O)/C=C/C(=O)O)cc3)sc2c1
Unit of measure: µM
Value modifier: =
IC50: 23

Molecule: O=C(O)c1ccccc1NC(=O)c1ccccc1S(=O)(=O)Nc1ccc(Oc2ccccc2)cc1
Unit of measure: µM
Value modifier: =
IC50: 18

Molecule: O=C(O)CSc1nc(-c2cccs2)cc(C(F)(F)F)n1
Unit of measure: µM
Value modifier: >
IC50: 100

Molecule: O=C(O)CSc1nc(Nc2ccccc2)nc(N2CCOCC2)n1
Unit of measure: µM
Value modifier: >
IC50: 100

Molecule: CCOc1cc(CNc2nn[nH]n2)cc(Cl)c1OCc1ccc(Cl)cc1
Unit of measure: µM
Value modifier: =
IC50: 52

Molecule: CCOc1cc(N(CC)CC)ccc1/C=C1\C(=O)N(c2nnn[nH]2)N=C1C
Unit of measure: µM
Value modifier: =
IC50: 65

Molecule: O=C(O)C(O)C(O)c1nc2cc3ccccc3cc2[nH]1 (stereo unspecified)
Unit of measure: µM
Value modifier: =
IC50: 46
